System: Strongylocentrotus purpuratus
Experiment: Activation of NAADP receptor in Strongylocentrotus purpuratus egg homogenates assessed as Ca2+ release by Fluo-3 dye based fluorometric assay relative to NAADP
Reported property: Ratio EC50

Chem smiles	Ratio EC50
CC(=O)Nc1cc(C(=O)O)c[n+]([C@H]2O[C@@H](COP(=O)(O)OP(=O)([O-])OC[C@H]3O[C@@H](n4cnc5c(N)ncnc54)[C@H](OP(=O)(O)O)[C@@H]3O)[C@H](O)[C@@H]2O)c1	24.3
[N-]=[N+]=NCCCc1cc(C(=O)O)c[n+]([C@H]2O[C@@H](COP(=O)(O)OP(=O)([O-])OC[C@H]3O[C@@H](n4cnc5c(N)ncnc54)[C@H](OP(=O)(O)O)[C@@H]3O)[C@H](O)[C@@H]2O)c1	1190
CC(C)(C)OC(=O)NCCCc1cc(C(=O)O)c[n+]([C@H]2O[C@@H](COP(=O)(O)OP(=O)([O-])OC[C@H]3O[C@@H](n4cnc5c(N)ncnc54)[C@H](OP(=O)(O)O)[C@@H]3O)[C@H](O)[C@@H]2O)c1	6200

P: Nc1ncnc2c1ncn2[C@@H]1O[C@H](COP(=O)([O-])OP(=O)(O)OC[C@@H]2O[C@H]([n+]3cc(CCCO)cc(C(=O)O)c3)[C@@H](O)[C@H]2O)[C@@H](O)[C@H]1OP(=O)(O)O
Q: CC(=O)NCCCc1cc(C(=O)O)c[n+]([C@H]2O[C@@H](COP(=O)(O)OP(=O)([O-])OC[C@H]3O[C@@H](n4cnc5c(N)ncnc54)[C@H](OP(=O)(O)O)[C@@H]3O)[C@H](O)[C@@H]2O)c1
Quick one: lower Ratio EC50, P or Q ? Field: selected label. Fill in the label of the entry you choose.
P

A: [N-]=[N+]=Nc1cc(C(=O)O)c[n+]([C@H]2O[C@@H](COP(=O)(O)OP(=O)([O-])OC[C@H]3O[C@@H](n4c(Br)nc5c(N)ncnc54)[C@H](OP(=O)(O)O)[C@@H]3O)[C@H](O)[C@@H]2O)c1
B: Nc1ncnc2c1ncn2[C@@H]1O[C@H](COP(=O)([O-])OP(=O)(O)OC[C@@H]2O[C@H]([n+]3cc(O)cc(C(=O)O)c3)[C@@H](O)[C@H]2O)[C@@H](O)[C@H]1OP(=O)(O)O
Hey, between A and B which has a smaller measured Ratio EC50? # reply format: chosen label
B

I: Nc1ncnc2c1nc(Br)n2[C@@H]1O[C@H](COP(=O)([O-])OP(=O)(O)OC[C@@H]2O[C@H]([n+]3cccc(C(=O)O)c3)[C@@H](O)[C@H]2O)[C@@H](O)[C@H]1OP(=O)(O)O
II: [N-]=[N+]=Nc1nc2c(N)ncnc2n1[C@@H]1O[C@H](COP(=O)([O-])OP(=O)(O)OC[C@@H]2O[C@H]([n+]3cccc(C(=O)O)c3)[C@@H](O)[C@H]2O)[C@@H](O)[C@H]1OP(=O)(O)O
For the two items I and II , which reports the higher Ratio EC50 value? Indicate which entry you chose by stating its label.
I
(I: 27.5, II: 1.8)

----------
Experiment: Desensitization of NAADP receptor in Strongylocentrotus purpuratus egg homogenates assessed as inhibition of NAADP-induced Ca2+ release pre-treated for 7 mins before NAADP addition by Fluo-3 dye based fluorometric assay
// reported pIC50 for each item listed
pIC50 here: minus log base 10 of the concentration, concentration in moles per litre.

Before answering, review these 2 worked examples.
Chem smiles	pIC50
Nc1ncnc2c1ncn2[C@@H]1O[C@H](COP(=O)(O)OP(=O)(O)OC[C@@H]2O[C@H]([n+]3cccc(C(=O)[O-])c3)[C@@H](O)[C@H]2O)[C@@H](O)[C@H]1OP(=O)(O)O	9.33
[N-]=[N+]=Nc1nc2c(N)ncnc2n1[C@@H]1O[C@H](COP(=O)([O-])OP(=O)(O)OC[C@@H]2O[C@H]([n+]3cccc(C(=O)O)c3)[C@@H](O)[C@H]2O)[C@@H](O)[C@H]1OP(=O)(O)O	9.22

What does the record list as pIC50 for `Nc1ncnc2c1ncn2[C@@H]1O[C@H](COP(=O)([O-])OP(=O)(O)OC[C@@H]2O[C@H]([n+]3cc(CCCO)cc(C(=O)O)c3)[C@@H](O)[C@H]2O)[C@@H](O)[C@H]1OP(=O)(O)O` ?
6.91

# get_value(readout='pIC50', item= `CC(=O)Nc1cc(C(=O)O)c[n+]([C@H]2O[C@@H](COP(=O)(O)OP(=O)([O-])OC[C@H]3O[C@@H](n4cnc5c(N)ncnc54)[C@H](OP(=O)(O)O)[C@@H]3O)[C@H](O)[C@@H]2O)c1` )
7.67

Recorded pIC50 of `CC(=O)NCCCc1cc(C(=O)O)c[n+]([C@H]2O[C@@H](COP(=O)(O)OP(=O)([O-])OC[C@H]3O[C@@H](n4cnc5c(N)ncnc54)[C@H](OP(=O)(O)O)[C@@H]3O)[C@H](O)[C@@H]2O)c1` , please.
5.91

----------
Tested on: Strongylocentrotus purpuratus
Experiment: Displacement of [32P]NAADP from NAADP receptor in Strongylocentrotus purpuratus egg homogenates incubated for 90 mins by liquid scintillation counting method relative to NAADP
Reported property: Ratio IC50

a: Nc1ncnc2c1ncn2[C@@H]1O[C@H](COP(=O)([O-])OP(=O)(O)OC[C@@H]2O[C@H]([n+]3cc(O)cc(C(=O)O)c3)[C@@H](O)[C@H]2O)[C@@H](O)[C@H]1OP(=O)(O)O
b: Nc1ncnc2c1ncn2[C@@H]1O[C@H](COP(=O)([O-])OP(=O)(O)OC[C@@H]2O[C@H]([n+]3cc(CCCO)cc(C(=O)O)c3)[C@@H](O)[C@H]2O)[C@@H](O)[C@H]1OP(=O)(O)O
c: CC(C)(C)OC(=O)NCCCc1cc(C(=O)O)c[n+]([C@H]2O[C@@H](COP(=O)(O)OP(=O)([O-])OC[C@H]3O[C@@H](n4cnc5c(N)ncnc54)[C@H](OP(=O)(O)O)[C@@H]3O)[C@H](O)[C@@H]2O)c1
d: CSc1cc(C(=O)O)c[n+]([C@H]2O[C@@H](COP(=O)(O)OP(=O)([O-])OC[C@H]3O[C@@H](n4cnc5c(N)ncnc54)[C@H](OP(=O)(O)O)[C@@H]3O)[C@H](O)[C@@H]2O)c1
e: [N-]=[N+]=Nc1cc(C(=O)O)c[n+]([C@H]2O[C@@H](COP(=O)(O)OP(=O)([O-])OC[C@H]3O[C@@H](n4c(Br)nc5c(N)ncnc54)[C@H](OP(=O)(O)O)[C@@H]3O)[C@H](O)[C@@H]2O)c1
Order the records by Ratio IC50, with each subsequent value no larger than the one before. Your reply should list the labels following the order given in the request.
c, e, b, a, d
(c: 8840, e: 1000, b: 132, a: 51, d: 18.4)

1: Nc1ncnc2c1nc(Br)n2[C@@H]1O[C@H](COP(=O)([O-])OP(=O)(O)OC[C@@H]2O[C@H]([n+]3cccc(C(=O)O)c3)[C@@H](O)[C@H]2O)[C@@H](O)[C@H]1OP(=O)(O)O
2: CC(=O)NCCCc1cc(C(=O)O)c[n+]([C@H]2O[C@@H](COP(=O)(O)OP(=O)([O-])OC[C@H]3O[C@@H](n4cnc5c(N)ncnc54)[C@H](OP(=O)(O)O)[C@@H]3O)[C@H](O)[C@@H]2O)c1
3: [N-]=[N+]=NCCCc1cc(C(=O)O)c[n+]([C@H]2O[C@@H](COP(=O)(O)OP(=O)([O-])OC[C@H]3O[C@@H](n4cnc5c(N)ncnc54)[C@H](OP(=O)(O)O)[C@@H]3O)[C@H](O)[C@@H]2O)c1
4: [N-]=[N+]=Nc1nc2c(N)ncnc2n1[C@@H]1O[C@H](COP(=O)([O-])OP(=O)(O)OC[C@@H]2O[C@H]([n+]3cccc(C(=O)O)c3)[C@@H](O)[C@H]2O)[C@@H](O)[C@H]1OP(=O)(O)O
# desc sort on Ratio IC50 across 4 compounds Record the ranking as a list of labels in the requested order.
2, 3, 1, 4
(2: 4880, 3: 152, 1: 42.4, 4: 1.9)

----------
System: Strongylocentrotus purpuratus
Experiment: Desensitization of NAADP receptor in Strongylocentrotus purpuratus egg homogenates assessed as inhibition of NAADP-induced Ca2+ release pre-treated for 7 mins before NAADP addition by Fluo-3 dye based fluorometric assay relative to NAADP
Reported property: Ratio IC50
Reply briefly: the number, and no unit.

Some entries whose results are on file:
Chem smiles	Ratio IC50
CSc1cc(C(=O)O)c[n+]([C@H]2O[C@@H](COP(=O)(O)OP(=O)([O-])OC[C@H]3O[C@@H](n4cnc5c(N)ncnc54)[C@H](OP(=O)(O)O)[C@@H]3O)[C@H](O)[C@@H]2O)c1	8.9
NCCCc1cc(C(=O)O)c[n+]([C@H]2O[C@@H](COP(=O)(O)OP(=O)([O-])OC[C@H]3O[C@@H](n4cnc5c(N)ncnc54)[C@H](OP(=O)(O)O)[C@@H]3O)[C@H](O)[C@@H]2O)c1	1.43e+06
CC(C)(C)OC(=O)NCCCc1cc(C(=O)O)c[n+]([C@H]2O[C@@H](COP(=O)(O)OP(=O)([O-])OC[C@H]3O[C@@H](n4cnc5c(N)ncnc54)[C@H](OP(=O)(O)O)[C@@H]3O)[C@H](O)[C@@H]2O)c1	2000
[N-]=[N+]=Nc1nc2c(N)ncnc2n1[C@@H]1O[C@H](COP(=O)([O-])OP(=O)(O)OC[C@@H]2O[C@H]([n+]3cccc(C(=O)O)c3)[C@@H](O)[C@H]2O)[C@@H](O)[C@H]1OP(=O)(O)O	1.3

Let's switch to this molecule now.
Which Ratio IC50 reading was recorded for the molecule `CC(=O)Nc1cc(C(=O)O)c[n+]([C@H]2O[C@@H](COP(=O)(O)OP(=O)([O-])OC[C@H]3O[C@@H](n4cnc5c(N)ncnc54)[C@H](OP(=O)(O)O)[C@@H]3O)[C@H](O)[C@@H]2O)c1` ?
45.7

Sourced from ChEMBL document CHEMBL3421619
